TARGET SYSTEM: UniProt:P47746
Sequence (P47746 whole entry): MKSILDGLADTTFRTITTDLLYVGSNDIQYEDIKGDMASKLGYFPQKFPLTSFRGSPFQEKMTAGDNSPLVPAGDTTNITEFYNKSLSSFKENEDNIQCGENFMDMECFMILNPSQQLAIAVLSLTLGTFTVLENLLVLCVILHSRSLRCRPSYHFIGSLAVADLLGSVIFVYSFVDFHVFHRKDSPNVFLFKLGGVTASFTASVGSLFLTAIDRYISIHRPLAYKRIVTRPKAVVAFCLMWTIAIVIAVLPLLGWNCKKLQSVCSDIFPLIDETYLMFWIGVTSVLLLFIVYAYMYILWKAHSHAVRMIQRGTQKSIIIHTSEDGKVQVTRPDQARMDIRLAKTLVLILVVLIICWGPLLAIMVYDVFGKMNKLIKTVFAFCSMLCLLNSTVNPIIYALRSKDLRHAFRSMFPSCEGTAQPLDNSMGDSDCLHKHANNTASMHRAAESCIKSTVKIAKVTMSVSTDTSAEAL
PROTOCOL TEXT: [^35S]GTPγS binding, mouse hippocampus membranes
RUN CONDITIONS: read-out: EC50, stimulation of [^35S]GTPγS binding; mean ± SEM, n = 3–4
ENDPOINT LABEL: EC50 (nM)
Answers are plain numbers, in nM.

                                   compound  endpoint_label  display_unit  meas_value
0  O=C(CCC/C=C\C/C=C\C/C=C\C/C=C\CCCCCN=C=S)NC1CC1            EC50            nM          50

Let us move to another entry and its EC50.
*Q* Provide one value: measured EC50 of CCCCCCC(C)(C)c1ccc([C@@H]2C[C@H](O)CC[C@H]2CCCO)c(O)c1 [CP55,940, reference compound]
*A* 1100
